Task for the reader: assign each of the following sequences its reported Frequency (TNFα+ IFNγ+ CD4 T cells).
test system: CD4+ T cells; test: Exogenous autologous healthy donor restimulation assay, TNFα and IFNγ production by CD4+ T cells; type: cell-based, human; design: unit not given here; details: maximum CD4+ T-cell response, donor independent; peptide pool 10 μg/mL, healthy donors
Numbers only.

Worked cases, answers included:
WLLRTWERADSGL [AS123, alternative splicing, PCNX3]    0.05
MDLTAIYEDSAGPLSHA [FUS54, gene fusion ZFP36-> PLEKHG2]    0.063
RSISLHKSDPSLLSPN [AS25, alternative splicing, TBCEL]    0.061
CRERGLQEAEGDVAAL [FUS40, gene fusion KLF2-> TPM4]    0.024

Switching to the query record.
Give the reported value of Frequency (TNFα+ IFNγ+ CD4 T cells) for this record: IDPSSPLHTYYERITKGRNPERRYMKPERISPGHEAMEKNLEDNL [AS129, alternative splicing, TET1]
0.022

Reference source for all entries: patent US20210261636A1
